System: PC-3 prostate
ASSAY NAME: NCI-60 one-dose screen, 48 h
TEST SETTINGS: 10 µM unless noted
This is part of a sample that, as a whole, favours compounds with a hit. Of some 83,000 tested, about 20% had one in any assay. The source made the active and inactive calls. The calls were made as follows: active = growth percent below 10; inactive = the rest.
API: response.call in active, inactive

// outcome(item) with item = "COc1cc2c(cc1OCc1ccccc1)C(CC(C)C)=[N+](C)CC2"
inactive

// outcome(item) with item = "COc1cc2ncnc(Nc3ccc(F)c(Cl)c3)c2cc1OCC(=O)N1CCN(C)CC1"
inactive

// outcome(item) with item = "C[C@]12CCc3sc(-c4ccccc4O)nc3C1=CC[C@@H]1[C@@H]2CC[C@]2(C)C(=O)CC[C@@H]12"
inactive

// outcome(item) with item = "CCC(=O)Nc1ccc(Cl)c(Cl)c1"
inactive

// outcome(item) with item = NC(=O)c1c(Br)n(C2OC(CO)C(O)C2O)c2ncnc(N)c12 (stereo unspecified)
active

// outcome(item) with item = CN[C@@]1(c2ccccc2Cl)CCCC[C@@H]1NCC1CCCO1 (stereo partly specified)
inactive
